Please provide measured LUMO energy level for the entries that follow.
# Method: Cyclic voltammetry in dichloromethane
# Type: physicochemical
# Particulars: calculated by equation (2), −(E1/2^red1+4.44)
Number only, in eV; omit the unit.

Item under review: CCCCCCCCCCCCC(CCCCCCCCCC)Cn1c(=O)c2c3sc(=C(C#N)C#N)sc3c3c(=O)n(CC(CCCCCCCCCC)CCCCCCCCCCCC)c(=O)c4c5sc(=C(C#N)C#N)sc5c(c1=O)c2c34 (stereo not shown) [Compound 1] . Reported LUMO energy level? −4.35

Item under review: CCCCCCCCCCC(CCCCCCCC)Cn1c(=O)c2c3sc(C#N)c(C#N)sc3c3c(=O)n(CC(CCCCCCCC)CCCCCCCCCC)c(=O)c4c5sc(C#N)c(C#N)sc5c(c1=O)c2c34 (stereo not shown) [Compound 15] . Reported LUMO energy level? −4.28

Item under review: CCCCCCCCCCCCC(CCCCCCCCCC)CN1C(=O)c2c3sc(C#N)c(C#N)c3c3c4c(c5sc(C#N)c(C#N)c5c(c24)C1=O)C(=O)N(CC(CCCCCCCCCC)CCCCCCCCCCCC)C3=O (stereo not shown) [Compound 18] . Reported LUMO energy level? −4.63

Item under review: CCCCCCCCCCC(CCCCCCCC)Cn1c(=O)c2c3sc(=C(C#N)C(=O)OCC)sc3c3c(=O)n(CC(CCCCCCCC)CCCCCCCCCC)c(=O)c4c5sc(=C(C#N)C(=O)OCC)sc5c(c1=O)c2c34 (stereo not shown) [Compound 9] . Reported LUMO energy level? −4.23

* * *

Measured Metric: melting point

Item under review: CCCCCCCCCCC(CCCCCCCC)Cn1c(=O)c2c3sc(=C(C#N)C#N)sc3c3c(=O)n(CC(CCCCCCCC)CCCCCCCCCC)c(=O)c4c5sc(=C(C#N)C#N)sc5c(c1=O)c2c34 (stereo not drawn) . Reported melting point? 265 °C

Item under review: CCCCCCC(CCCC)Cn1c(=O)c2c3sc(=C(C#N)C#N)sc3c3c(=O)n(CC(CCCC)CCCCCC)c(=O)c4c5sc(=C(C#N)C#N)sc5c(c1=O)c2c34 (stereo not drawn) . Reported melting point? 369 to 371 °C

Item under review: CCCCCCCCC(CCCCCC)Cn1c(=O)c2c3sc(=C(C#N)C#N)sc3c3c(=O)n(CC(CCCCCC)CCCCCCCC)c(=O)c4c5sc(=C(C#N)C#N)sc5c(c1=O)c2c34 (stereo not drawn) . Reported melting point? 317 to 319 °C

Item under review: CCCCCCCCC(CCCCCC)CCn1c(=O)c2c3sc(=C(C#N)C#N)sc3c3c(=O)n(CCC(CCCCCC)CCCCCCCC)c(=O)c4c5sc(=C(C#N)C#N)sc5c(c1=O)c2c34 (stereo not drawn) . Reported melting point? 330 to 332 °C

Item under review: CCCCCCC(CCCCCC)Cn1c(=O)c2c3sc(=C(C#N)C#N)sc3c3c(=O)n(CC(CCCCCC)CCCCCC)c(=O)c4c5sc(=C(C#N)C#N)sc5c(c1=O)c2c34 . Reported melting point? 349 to 351 °C

Item under review: CCCCCCCCCCCCC(CCCCCCCCCC)Cn1c(=O)c2c3sc(=C(C#N)C#N)sc3c3c(=O)n(CC(CCCCCCCCCC)CCCCCCCCCCCC)c(=O)c4c5sc(=C(C#N)C#N)sc5c(c1=O)c2c34 (stereo not drawn) . Reported melting point? 240 °C

All values here come from patent US8471021B2.
